Tested on: MCF-7
Protocol details: 3H-TdR incorporation at 72 hr (24 hr drug exposure, wash, 48 hr)
Type: cell-based, Human
Test settings: Homo sapiens, MCF7, read-out: IC50 in μM (3H-TdR incorporation at 72 hr) MCF-7 24 h, MCF-7 Human Breast Carcinoma, 72 hr assay
Here, each record is paired with measured IC50 data.

Some entries whose results are on file:
# Compound, IC50
data = [
    ("CC(C)(C)C(CCCCCCc1ccccc1)C(=O)OC[C@H]1OC[C@@H](n2ccc(N)nc2=O)O1 (some centres unmarked)", "5.1 µM"),
    ("CCOC(=O)/C=C/OC[C@H]1OC[C@@H](n2ccc(N)nc2=O)O1", "18 µM"),
    ("CC(C)(CCCCCCc1ccccc1)C(=O)Nc1ccn([C@@H]2CO[C@H](CO)O2)c(=O)n1", "0.012 µM"),
    ("Nc1ccn([C@@H]2CO[C@H](COC(=O)N(c3ccccc3)c3ccccc3)O2)c(=O)n1", "1.4 µM"),
]

Here is another compound to look at.
Task: Can you share its IC50? I mean this compound: `O=C(Nc1ccn([C@@H]2CO[C@H](CO)O2)c(=O)n1)OCc1ccc([N+](=O)[O-])cc1`
Result: 0.22 µM

###

Here, each record is paired with measured log10(IC50) data.
System: MCF-7
Protocol details: 3H-TdR incorporation at 72 hr (24 hr drug exposure, wash, 48 hr)
Format: cell-based, Human
Test settings: Homo sapiens, MCF7, read-out: IC50 in μM (3H-TdR incorporation at 72 hr) MCF-7 24 h, MCF-7 Human Breast Carcinoma, 72 hr assay
Short version: log10 scale, IC50, µM.

Task: Can you share its log10(IC50)? I mean this molecule: `COc1ccc(C(=O)Nc2ccn([C@@H]3CO[C@H](CO)O3)c(=O)n2)cc1`
Result: 0.49

###

Tested on: MCF-7
Protocol details: 3H-TdR incorporation at 72 hr (24 hr drug exposure, wash, 48 hr)
Type: cell-based, Human
Test settings: Homo sapiens, MCF7, read-out: IC50 in μM (3H-TdR incorporation at 72 hr) MCF-7 24 h, MCF-7 Human Breast Carcinoma, 72 hr assay
IC50 strictly less than 5 µM = YES. Otherwise NO.

Study these solved cases before continuing.
# Compound, Assayed target, Cat
measured = [
    ("Nc1ccn([C@@H]2CO[C@H](COC(=O)NCCCc3ccccc3)O2)c(=O)n1 [Compound 215]", "MCF-7", "NO"),
    ("CCCCCCCC/C=C/CCCCCCCC(=O)Nc1ccn([C@@H]2CO[C@H](CO)O2)c(=O)n1 (stereo in doubt) [Compound 216]", "MCF-7", "YES"),
    ("CC(=O)Oc1ccc(COC(=O)Nc2ccn([C@@H]3CO[C@H](CO)O3)c(=O)n2)cc1 [Compound 203]", "MCF-7", "YES"),
]

Task: Is IC50 of CC(CCCCCCc1ccccc1)C(=O)OC[C@H]1OC[C@@H](n2ccc(N)nc2=O)O1 (some centres unmarked) [Compound 245] strictly below 5 µM?
Result: YES

Task: Is IC50 of Nc1ccn([C@@H]2CO[C@H](COC(=O)c3ccccc3)O2)c(=O)n1 [Compound 163] strictly below 5 µM?
Result: YES

Task: Is IC50 of CC(C)(C)OC(=O)NCCCCCC(=O)Nc1ccn([C@@H]2CO[C@H](COC(=O)CCCCCNC(=O)OC(C)(C)C)O2)c(=O)n1 [Compound 192] strictly below 5 µM?
Result: YES

Task: Is IC50 of O=C(NCNc1ccn([C@@H]2CO[C@H](CO)O2)c(=O)n1)c1ccccc1 [Compound 165] strictly below 5 µM?
Result: NO

Task: Is IC50 of CC(C)(CCCCCCc1ccccc1)C(=O)OC[C@H]1OC[C@@H](n2ccc(N)nc2=O)O1 [Compound 238] strictly below 5 µM?
Result: YES

Task: Is IC50 of Cl.Nc1ccn([C@@H]2CO[C@H](COC(=O)OCc3ccc([N+](=O)[O-])cc3)O2)c(=O)n1 [Compound 183, HYDROCHLORIDE SALT] strictly below 5 µM?
Result: YES

Task: Is IC50 of CN(C)/C=N/c1ccn([C@@H]2CO[C@H](CO)O2)c(=O)n1 (stereo in doubt) [Compound 222] strictly below 5 µM?
Result: YES
